Where do the numbers come from? From patent US10183021B2.

EC50 by entry:
target: soluble guanylate cyclase (sGC) (Homo sapiens (Human), UniProt Q02108+Q02153); test: sGC-HEK-cGMP assay, new protocol with DETA-NONOate, LC/MS detection (Example 2C); format: cell-based; settings: read-out: Absolute EC50 (uM) - binned
Sequence (Q02153 whole entry): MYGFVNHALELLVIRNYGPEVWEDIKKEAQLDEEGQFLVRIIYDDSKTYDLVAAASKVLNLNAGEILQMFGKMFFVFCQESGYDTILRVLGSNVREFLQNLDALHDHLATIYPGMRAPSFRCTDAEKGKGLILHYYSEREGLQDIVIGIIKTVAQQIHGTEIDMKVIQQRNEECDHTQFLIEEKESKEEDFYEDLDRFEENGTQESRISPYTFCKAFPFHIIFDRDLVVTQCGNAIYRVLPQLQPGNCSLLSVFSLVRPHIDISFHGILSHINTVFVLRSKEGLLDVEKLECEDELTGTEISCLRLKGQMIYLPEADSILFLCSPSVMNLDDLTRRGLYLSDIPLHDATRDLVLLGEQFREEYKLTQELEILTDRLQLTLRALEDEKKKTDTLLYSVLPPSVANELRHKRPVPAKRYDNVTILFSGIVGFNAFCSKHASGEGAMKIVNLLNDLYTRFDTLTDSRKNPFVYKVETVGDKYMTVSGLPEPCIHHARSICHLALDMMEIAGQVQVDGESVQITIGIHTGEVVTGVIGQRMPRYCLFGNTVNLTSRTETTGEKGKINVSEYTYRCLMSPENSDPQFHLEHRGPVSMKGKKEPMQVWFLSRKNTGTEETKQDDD
Sequence (Q02108 whole entry): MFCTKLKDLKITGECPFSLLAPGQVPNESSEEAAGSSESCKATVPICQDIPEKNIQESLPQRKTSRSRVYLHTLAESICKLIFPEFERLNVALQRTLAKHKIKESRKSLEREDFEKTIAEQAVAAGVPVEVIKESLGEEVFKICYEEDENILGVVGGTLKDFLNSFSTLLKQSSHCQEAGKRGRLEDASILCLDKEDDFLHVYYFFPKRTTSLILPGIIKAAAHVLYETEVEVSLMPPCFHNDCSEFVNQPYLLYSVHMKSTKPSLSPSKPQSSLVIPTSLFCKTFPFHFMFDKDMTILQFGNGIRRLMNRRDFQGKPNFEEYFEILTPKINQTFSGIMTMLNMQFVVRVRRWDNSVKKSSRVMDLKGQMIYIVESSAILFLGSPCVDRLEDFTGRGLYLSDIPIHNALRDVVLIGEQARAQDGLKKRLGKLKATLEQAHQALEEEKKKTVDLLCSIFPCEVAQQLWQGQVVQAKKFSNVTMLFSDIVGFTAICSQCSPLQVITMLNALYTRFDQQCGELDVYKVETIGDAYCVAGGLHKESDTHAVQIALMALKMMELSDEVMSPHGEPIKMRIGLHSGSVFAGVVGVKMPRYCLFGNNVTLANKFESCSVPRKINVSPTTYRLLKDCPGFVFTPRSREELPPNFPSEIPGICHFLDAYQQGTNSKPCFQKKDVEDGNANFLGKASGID

| Molecule | Reported |
| --- | --- |
| CN(CC1(C(=O)O)CC1)c1nc(-c2cc(-c3ccon3)n(CCC(F)(F)F)n2)ncc1F | > 1 µM |
| CC1(C(N)=O)CCN(c2nc(-c3cc(-c4ccon4)n(Cc4ccccc4F)n3)ncc2F)C1=O (stereo not shown) | 0.101 to 1 µM |
| O=C(O)[C@H]1[C@@H](c2ccccc2)CCCN1c1nc(-c2cc(-c3ccon3)n(Cc3ccccc3F)n2)ncc1F | < 0.1 µM |

The record that follows has no EC50 shown yet.
Problem: Bench note: what EC50 did CC1(C(=O)NC2CC2)CCN(c2nc(-c3cc(-c4ccon4)n(Cc4ccccc4F)n3)ncc2F)C1=O (stereo not shown) show?
Solution: 0.101 to 1 µM
